# key: entry, value: MIC50
Test system: Proteus mirabilis
test: MIC by NCCLS broth microdilution, 1100 Japanese clinical isolates 1997-1998
Type: cell-based
conditions used: Proteus mirabilis (n=30); read-out: MIC50
Write the number in µg/mL without appending the unit.

> print(dat)
                                   compound  measured.result
1  NC1CCN(c2nc3c(cc2F)c(=O)c(C(=O)O)cn3-c2ccc(F)cc2F)C1 (stereo not shown)             0.25
2  C[C@H]1COc2c(N3CCN(C)CC3)c(F)cc3c(=O)c(C(=O)O)cn1c23            0.063
3  C[C@@H]1CN(c2c(F)c(N)c3c(=O)c(C(=O)O)cn(C4CC4)c3c2F)C[C@H](C)N1             0.25

Q: Item N[C@@H]1[C@H]2CN(c3nc4c(cc3F)c(=O)c(C(=O)O)cn4-c3ccc(F)cc3F)C[C@@H]12 has what recorded MIC50?
Ans: 0.25
